Values from patent US20100016421A1

# Test system: BT 20
# Assay overview: MTT assay, BT 20 breast cancer cell line
# Assay type: cell-based
# Condition set: Homo sapiens; BT 20, mean of three independent MTT experiments; read-out: AF IC50
Measurement label: IC50 (nM)
Numbers only, in nM.

Prompt line: Return reported IC50 for target or system BT 20, item Cc1c(F)c(N)c2c(=O)cc(-c3ccc(N)c(F)c3)oc2c1F [AF, aminoflavone] .
Response line: 20

----------
# Test system: ADDP
# Assay overview: Cytotoxicity, ADDP ovarian cancer cell line
# Format: cell-based
# Condition set: Homo sapiens
Measurement label: pIC50
One number for each entry, as −log10 of the molar value.

Prompt line: Given Cc1c(F)c(N)c2c(=O)cc(-c3ccc(NC(=O)[C@@H](N)CCCCN)c(F)c3)oc2c1F , respond with its pIC50.
Response line: 5.60
